Values were extracted from patent US5488110A.

experiment summary: UV Method For Determining Water Solubility
Type: physicochemical
condition label: water; room temperature; saturated solution standing over excess sample 15 to 20 hours; UV

| compound | unit tag | lt gt eq | solubility |
| --- | --- | --- | --- |
| O=C1c2cccc3cc([N+](=O)[O-])cc(c23)C(=O)N1CCNCCNCCN1C(=O)c2cccc3cc([N+](=O)[O-])cc(c23)C1=O [Example 3] | µg/mL | = | 600 |
| CN(CCNCCN1C(=O)c2cccc3cc([N+](=O)[O-])cc(c23)C1=O)CCN1C(=O)c2cccc3cc([N+](=O)[O-])cc(c23)C1=O [Example 2] | µg/mL | = | 9600 |
| CN(CCN(C)CCN1C(=O)c2cccc3cc([N+](=O)[O-])cc(c23)C1=O)CCN1C(=O)c2cccc3cc([N+](=O)[O-])cc(c23)C1=O [Example 1] | µg/mL | > | 26400 |
